Molecular target: T1, hRET.mFc (human)
T1 construct: also called dimeric human RET
Assay: SPR Biacore T200, mAb capture, 25 C
experimentalReadout: Kd (nM)
Give the quantity in nM, number only.

The examples below pair each entry with its known result.
binder	Kd (nM)
H4H8071P (antibody, human IgG4, V domains shown, human IgG4 Fc (H4H prefix)) VH: EVQLVESGGGLVQPGGSLRLSCAASGFTFTTYFMSWVRQAPGKGLEWVSGISGSGTSTFYVDSMKGRFTISRDNSKNTLYLQMNSLRVEDTAVYFCAKENTYGHFDFWGQGTLVTVSS VL: DIQLTQSPSFLSASVGDRVTITCWASQDISSHLAWYQQKPGKAPKVLIYDASTLQSGVPSRISGSGSGTEFTLTISSLQPEDFAAYYCQQLDGYPYTFGQGTKLEIK	0.89
H4H8083P (antibody, human IgG4, V domains shown, human IgG4 Fc (H4H prefix)) VH: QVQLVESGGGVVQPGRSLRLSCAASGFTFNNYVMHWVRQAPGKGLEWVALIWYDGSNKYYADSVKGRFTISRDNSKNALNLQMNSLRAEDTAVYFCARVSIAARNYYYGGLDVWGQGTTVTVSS VL: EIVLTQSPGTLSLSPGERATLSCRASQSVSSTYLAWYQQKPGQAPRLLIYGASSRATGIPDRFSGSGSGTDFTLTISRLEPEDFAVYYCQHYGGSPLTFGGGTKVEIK	1.14
H4H8062P (antibody, human IgG4, V domains shown, human IgG4 Fc (H4H prefix)) VH: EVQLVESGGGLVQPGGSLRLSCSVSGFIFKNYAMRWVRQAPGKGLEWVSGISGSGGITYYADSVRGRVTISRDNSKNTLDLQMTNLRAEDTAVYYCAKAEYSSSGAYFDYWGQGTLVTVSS VL: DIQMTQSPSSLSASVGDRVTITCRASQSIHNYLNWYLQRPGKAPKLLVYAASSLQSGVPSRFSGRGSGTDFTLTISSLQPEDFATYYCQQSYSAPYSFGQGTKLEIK	0.49
H4H8045P (antibody, human IgG4, V domains shown, human IgG4 Fc (H4H prefix)) VH: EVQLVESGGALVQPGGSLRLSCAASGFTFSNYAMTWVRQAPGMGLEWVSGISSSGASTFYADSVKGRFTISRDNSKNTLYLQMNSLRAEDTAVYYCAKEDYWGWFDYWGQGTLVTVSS VL: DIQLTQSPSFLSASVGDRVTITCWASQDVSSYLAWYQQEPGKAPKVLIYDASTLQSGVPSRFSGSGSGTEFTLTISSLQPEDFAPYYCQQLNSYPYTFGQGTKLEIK	0.229

# input for lookup
[ask] Given the entry H4H8076P (antibody, human IgG4, V domains shown, human IgG4 Fc (H4H prefix)) VH: QVQLQQSGPGLVKPSQTLSLTCAISGDSVSSNSVAWNWIRQSPSRGLEWLGRTYYRSNWYNTYAVSVKSRITIDPDTSKNQFSLQLNSVTPEDTALYYCARGHRYSGSYFDYWGQGTLVTVSS VL: DIQMTQSPSSLSASVGDRVTITCRASQNINSYFNWYQQKPGKAPKLLIYAASSLQSGVPSRFSGGGSGTDFTLTISSLQPEDFATYYCQQTYTIPWTFGQGTKVEIK , report its measured Kd.
[reply] 0.686
